The measured values listed here are drawn from patent US20100317647A1.

# collection of IC50 values tested on human Cat S (Homo sapiens, UniProt P25774)
# Sequence (P25774 115-331): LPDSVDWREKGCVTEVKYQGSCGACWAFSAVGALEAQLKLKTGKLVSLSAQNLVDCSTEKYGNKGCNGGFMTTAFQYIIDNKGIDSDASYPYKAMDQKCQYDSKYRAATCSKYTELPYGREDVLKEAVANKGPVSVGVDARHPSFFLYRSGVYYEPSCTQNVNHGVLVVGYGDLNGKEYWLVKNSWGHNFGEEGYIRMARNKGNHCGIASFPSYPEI
measuredProperty: IC50 (nM)

[[record]]
molecule = "N#CC1(NC(=O)[C@@H]2C[C@@H](S(=O)(=O)c3ccc(C4CC4)cc3C(F)(F)F)C[C@H]2C(=O)N2CC(F)(F)C2)CC1 [Example 125]"
targetorsystem = "human Cat S (Homo sapiens, UniProt P25774)"
measuredproperty = "IC50"
valueobserved = 0.3

[[record]]
molecule = "N#CCNC(=O)[C@@H]1C[C@@H](S(=O)(=O)c2ccc(F)cc2Cl)C[C@H]1COc1ccc(F)cc1 (single isomer, unassigned) [Example 143]"
targetorsystem = "human Cat S (Homo sapiens, UniProt P25774)"
measuredproperty = "IC50"
valueobserved = 0.523

[[record]]
molecule = "CCCO[C@@H]1C[C@H](S(=O)(=O)c2ccccc2C(F)(F)F)C[C@H]1C(=O)NCC#N (racemic) [Example 55]"
targetorsystem = "human Cat S (Homo sapiens, UniProt P25774)"
measuredproperty = "IC50"
valueobserved = 2.1

[[record]]
molecule = "N#CC1(NC(=O)[C@@H]2C[C@@H](S(=O)(=O)c3ccc(N4CCN(C5CC5)CC4)cc3Cl)C[C@H]2C(=O)N2CCC(F)(F)C2)CC1 [Example 191]"
targetorsystem = "human Cat S (Homo sapiens, UniProt P25774)"
measuredproperty = "IC50"
valueobserved = 0.575

[[record]]
molecule = "CO[C@@H]1C[C@H](S(=O)(=O)c2ccc(-c3cnn(CC(N)=O)c3)cc2C(F)(F)F)C[C@H]1C(=O)NC1(C#N)CC1 (racemic) [Example 194]"
targetorsystem = "human Cat S (Homo sapiens, UniProt P25774)"
measuredproperty = "IC50"
valueobserved = 0.713

[[record]]
molecule = "N#CC1(NC(=O)[C@@H]2C[C@@H](S(=O)(=O)c3ccc(F)cc3C(F)(F)F)C[C@H]2C(=O)N2CC(F)(F)C2)CC1 [Example 118]"
targetorsystem = "human Cat S (Homo sapiens, UniProt P25774)"
measuredproperty = "IC50"
valueobserved = 3

[[record]]
molecule = "N#CC1(NC(=O)[C@@H]2C[C@@H](S(=O)(=O)c3ccccc3C(F)(F)F)C[C@H]2OC2CCOCC2)CC1 (racemic) [Example 175]"
targetorsystem = "human Cat S (Homo sapiens, UniProt P25774)"
measuredproperty = "IC50"
valueobserved = 0.48


---

Here we list molecules with their recorded pIC50 when tested on human Cat S (Homo sapiens, UniProt P25774).
pIC50: −log10 of the molar value.
measuredProperty: pIC50

[[record]]
molecule = "CO[C@@H]1C[C@H](S(=O)(=O)c2ccc(-c3ccnc(C)c3)cc2C(F)(F)F)C[C@H]1C(=O)NC1(C#N)CC1 (racemic) [Example 77]"
measuredproperty = "pIC50"
valueobserved = 9.22

[[record]]
molecule = "CO[C@@H]1C[C@H](S(=O)(=O)c2ccc(-c3cc[nH]n3)cc2C(F)(F)F)C[C@H]1C(=O)NC1(C#N)CC1 (racemic) [Example 73]"
measuredproperty = "pIC50"
valueobserved = 9.00

[[record]]
molecule = "CN1CCN(C(=O)[C@@H]2C[C@H](S(=O)(=O)c3ccccc3)C[C@H]2C(=O)NC2(C#N)CC2)CC1 [Example 26]"
measuredproperty = "pIC50"
valueobserved = 8.82

[[record]]
molecule = "COCCOc1ccc(S(=O)(=O)[C@@H]2C[C@@H](C(=O)NC3(C#N)CC3)[C@H](C(=O)N3CC(F)(F)C3)C2)c(Cl)c1 [Example 168]"
measuredproperty = "pIC50"
valueobserved = 8.90

[[record]]
molecule = "N#CC1(NC(=O)[C@@H]2C[C@@H](S(=O)(=O)c3ccc(Br)cc3C(F)(F)F)C[C@H]2C(=O)N2CC(F)(F)C2)CC1 [Example 117]"
measuredproperty = "pIC50"
valueobserved = 8.96

[[record]]
molecule = "CC(=O)N1CCN(c2ccc(S(=O)(=O)[C@H]3C[C@@H](C(=O)NC4(C#N)CC4)[C@H](C(=O)N4CCC(F)(F)C4)C3)c(Cl)c2)CC1 [Example 209]"
measuredproperty = "pIC50"
valueobserved = 9.27

